system: LPS-induced TNFα in monocytes; test: Monocytes assay: LPS-triggered TNFα (ELISA); type: cell-based, human; details: Homo sapiens, Monocyte, LPS-triggered TNFα inhibition
pEC50: −log10 of the molar value.
Overview of recorded pEC50 for various compounds

As a guide, the following entries are already answered.
1. COc1cc(-c2cnn3cc(C(C)(C)COCC(=O)N(C)C)ccc23)cc(OC(F)F)c1C(=O)N[C@@H]1C[C@@H]1F = 6.00 to 7.00
2. COc1cc(-c2cnc3cc(C4CCCN4C)ccn23)cc(OC(F)F)c1C(=O)NC1CC1 (centres unmarked) = 5.30 to 6.00
3. COc1cc(-c2cnc3cc(C(C)(O)CN4CCCCC4)ccn23)cc(OC(F)F)c1C(=O)NC1CC1 (centres unmarked) = 6.00 to 7.00

Problem: # returns recorded pEC50 (system: LPS-induced TNFα in monocytes) for `COC(=O)NC1(c2ccc3c(-c4cc(OC)c(C(=O)N[C@@H]5C[C@@H]5F)c(OC(F)F)c4)cnn3c2)CCC1`
Solution: 6.00 to 7.00

Problem: # returns recorded pEC50 (system: LPS-induced TNFα in monocytes) for COc1cc(-c2cnn3cc(C(C)(C)C#N)ccc23)cc(OC(F)F)c1C(=O)N[C@@H]1C[C@H]1F (single isomer, unassigned)
Solution: 6.00 to 7.00

Problem: # returns recorded pEC50 (system: LPS-induced TNFα in monocytes) for COCC(C)(C#N)c1ccn2c(-c3cc(OC)c(C(=O)NC4CC4)c(OC(F)F)c3)cnc2c1 (centres unmarked)
Solution: 6.00 to 7.00

Problem: # returns recorded pEC50 (system: LPS-induced TNFα in monocytes) for `COc1cc(-c2cnc3cc(C4COC4)ccn23)cc(OC(F)F)c1C(=O)N[C@@H]1C[C@@H]1F`
Solution: 6.00 to 7.00

Problem: # returns recorded pEC50 (system: LPS-induced TNFα in monocytes) for `COc1cc(-c2cnn3cc(C(C)(C)COCC4COC4)ccc23)cc(OC(F)F)c1C(=O)N[C@@H]1C[C@@H]1F`
Solution: 6.00 to 7.00

Problem: # returns recorded pEC50 (system: LPS-induced TNFα in monocytes) for COc1cc(-c2cnc3cc(C4(C#N)CCOC4)ccn23)cc(OC(F)F)c1C(=O)NC1CC1 (centres unmarked)
Solution: 6.00 to 7.00

Problem: # returns recorded pEC50 (system: LPS-induced TNFα in monocytes) for `COc1cc(-c2cnn3cc(C(C)(C)COS(C)(=O)=O)ccc23)cc(OC(F)F)c1C(=O)N[C@@H]1C[C@@H]1F`
Solution: 7.00 to 10.00

----------
target: SIK3 (Homo sapiens); construct: purchased SignalChem S12-11G-100; assay: ADP-Glo kinase assay, SIK3; assay type: biochemical
Sequence (Q9Y2K2 59-365 limits assumed): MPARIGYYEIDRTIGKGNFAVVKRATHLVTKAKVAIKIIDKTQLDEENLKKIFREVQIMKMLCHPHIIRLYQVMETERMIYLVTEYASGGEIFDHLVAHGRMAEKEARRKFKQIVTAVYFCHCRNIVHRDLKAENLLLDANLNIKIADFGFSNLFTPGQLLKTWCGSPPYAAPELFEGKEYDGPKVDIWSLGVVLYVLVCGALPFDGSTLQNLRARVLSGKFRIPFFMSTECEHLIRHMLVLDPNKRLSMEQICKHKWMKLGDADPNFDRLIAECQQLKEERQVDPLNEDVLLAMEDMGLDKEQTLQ
pIC50: −log10 of the molar value.
MEASURED PROPERTY: pIC50

1. COc1cc(-c2cnc3cc(C4CCNCC4)ccn23)cc(OC(F)F)c1C(=O)NC1CC1 [Cpd 66] = 7.00 to 8.00

Problem: Consider the compound COc1cc(-c2cnc3cc(C4(C#N)CCOCC4)ccn23)cc(OC(F)F)c1C(=O)NC1CC1 [Cpd 116] and give its measured pIC50.
Solution: 8.00 to 11.00

Problem: Consider the compound COC(=O)NC1(c2ccc3c(-c4cc(OC)c(C(=O)N[C@@H]5C[C@@H]5F)c(OC(F)F)c4)cnn3c2)CCC1 [Cpd 272] and give its measured pIC50.
Solution: 7.00 to 8.00

Problem: Consider the compound COc1cc(-c2cnn3cc(C4(C#N)CCC4)ccc23)cc(OC(F)F)c1C(=O)N[C@@H]1C[C@@H]1F [Cpd 250] and give its measured pIC50.
Solution: 8.00 to 11.00

Problem: Consider the compound COc1cc(-c2cnc3cc(C(C)(C)C#N)ccn23)cc(OC(F)F)c1C(=O)N1CCC(OC)CC1 [Cpd 46] and give its measured pIC50.
Solution: < 6.30

Problem: Consider the compound COc1cc(-c2cnn3cc(C(C)(C)S(C)(=O)=O)ccc23)cc(OC(F)F)c1C(=O)N[C@@H]1C[C@@H]1F [Cpd 246] and give its measured pIC50.
Solution: 7.00 to 8.00

Problem: Consider the compound COc1cc(-c2cnc3cc(C4(O)CCOCC4)ccn23)cc(OC(F)F)c1C(=O)NC1CC1 [Cpd 170] and give its measured pIC50.
Solution: 7.00 to 8.00

Problem: Consider the compound COc1cc(-c2cnc3cc(C(C)(C)C#N)ccn23)cc(OC(F)F)c1C(=O)N1CC(F)(F)C1 [Cpd 69] and give its measured pIC50.
Solution: 8.00 to 11.00

Problem: Consider the compound COc1cc(-c2cnc3cc(C4(F)COC4)ccn23)cc(OC(F)F)c1C(=O)N[C@@H]1C[C@@H]1F [Cpd 224] and give its measured pIC50.
Solution: 8.00 to 11.00

Problem: Consider the compound COc1cc(-c2cnc3cc(C(C)(C)C#N)ccn23)cc(OC(F)F)c1C(=O)NCC1CCC1 [Cpd 90] and give its measured pIC50.
Solution: 7.00 to 8.00

Problem: Consider the compound COc1cc(-c2cnn3cc(C4(C#N)CCOCC4)ccc23)cc(OC(F)F)c1C(=O)NC1CC1 [Cpd 237] and give its measured pIC50.
Solution: 8.00 to 11.00

Problem: Consider the compound COc1cc(-c2cnc3cc(C4(O)COC4)ccn23)cc(OC(F)F)c1C(=O)N[C@@H]1C[C@@H]1F [Cpd 223] and give its measured pIC50.
Solution: 7.00 to 8.00

Problem: Consider the compound COc1cc(-c2cnc3cc(C(C)(C)C#N)ccn23)cc(OC)c1C(=O)N1CC(F)(F)C1 [Cpd 18] and give its measured pIC50.
Solution: 7.00 to 8.00

Problem: Consider the compound COc1cc(-c2cnc3cc(C(C)(C)C#N)ccn23)cc(OC(F)F)c1C(=O)NCC(C)C [Cpd 72] and give its measured pIC50.
Solution: 7.00 to 8.00

Problem: Consider the compound COc1cc(-c2cnc3cc(C(C)(C)C#N)ccn23)cc(OC(F)F)c1C(=O)N1CC(C#N)C1 [Cpd 77] and give its measured pIC50.
Solution: 8.00 to 11.00

Problem: Consider the compound COc1cc(-c2cnn3cc(C(C)(C)CO)ccc23)cc(OC(F)F)c1C(=O)N[C@@H]1C[C@@H]1F [Cpd 242] and give its measured pIC50.
Solution: 8.00 to 11.00

Problem: Consider the compound COc1cc(-c2cnn3cc(C(C)(C)O)ccc23)cc(OC(F)F)c1C(=O)N[C@@H]1C[C@@H]1F [Cpd 227] and give its measured pIC50.
Solution: 8.00 to 11.00

Problem: Consider the compound COc1cc(-c2cnc3cc(C(C)(C)C#N)ccn23)cc(OC(F)F)c1C(=O)N1CCS(=O)(=O)CC1 [Cpd 38] and give its measured pIC50.
Solution: < 6.30

Problem: Consider the compound COc1cc(-c2cnc3cc(C4CN(C(=O)OC(C)(C)C)C4)c(F)cn23)cc(OC(F)F)c1C(=O)NC1CC1 [Cpd 158] and give its measured pIC50.
Solution: 7.00 to 8.00

----------
target: SIK2 (Homo sapiens, UniProt Q9H0K1); construct: purchased ThermoFisher Scientific PV4792; experiment: ADP-Glo kinase assay, SIK2; type: biochemical
Sequence (Q9H0K1 whole entry): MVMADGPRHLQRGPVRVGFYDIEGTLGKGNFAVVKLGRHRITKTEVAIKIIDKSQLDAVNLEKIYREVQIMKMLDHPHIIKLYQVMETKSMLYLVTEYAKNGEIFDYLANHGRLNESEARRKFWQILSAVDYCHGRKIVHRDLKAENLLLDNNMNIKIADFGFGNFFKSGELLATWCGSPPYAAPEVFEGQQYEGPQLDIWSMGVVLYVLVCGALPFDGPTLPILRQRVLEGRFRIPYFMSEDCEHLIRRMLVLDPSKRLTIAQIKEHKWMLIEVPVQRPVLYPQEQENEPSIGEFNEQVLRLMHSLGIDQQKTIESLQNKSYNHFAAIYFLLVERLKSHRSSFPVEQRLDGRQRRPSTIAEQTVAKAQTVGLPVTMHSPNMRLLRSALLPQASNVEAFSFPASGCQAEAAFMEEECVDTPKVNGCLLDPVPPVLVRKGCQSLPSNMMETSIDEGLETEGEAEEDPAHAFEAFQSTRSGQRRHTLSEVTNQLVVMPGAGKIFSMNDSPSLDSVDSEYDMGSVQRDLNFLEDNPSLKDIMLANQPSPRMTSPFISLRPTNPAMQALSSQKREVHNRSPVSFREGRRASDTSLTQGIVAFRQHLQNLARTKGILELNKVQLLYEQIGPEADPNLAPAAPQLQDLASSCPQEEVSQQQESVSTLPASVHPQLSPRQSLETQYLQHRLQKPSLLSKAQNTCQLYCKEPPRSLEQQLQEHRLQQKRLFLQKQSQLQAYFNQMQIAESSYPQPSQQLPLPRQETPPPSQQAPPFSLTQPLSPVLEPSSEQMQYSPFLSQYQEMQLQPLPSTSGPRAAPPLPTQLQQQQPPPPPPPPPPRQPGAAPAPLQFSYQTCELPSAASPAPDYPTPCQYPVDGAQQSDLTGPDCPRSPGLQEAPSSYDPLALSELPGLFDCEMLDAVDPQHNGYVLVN
pIC50: −log10 of the molar value.
Overview of recorded pIC50 for various compounds

1) COc1cc(-c2cnn3cc(C4(C(N)=O)CCC4)ccc23)cc(OC(F)F)c1C(=O)N[C@@H]1C[C@@H]1F [Cpd 254] = < 6.30

Problem: # returns recorded pIC50 (system: SIK2 (Homo sapiens, UniProt Q9H0K1)) for COc1cc(-c2cnc3cc(C4(CO)CC4)ccn23)cc(OC(F)F)c1C(=O)NC1CC1 [Cpd 115]
Solution: 7.00 to 8.00

Problem: # returns recorded pIC50 (system: SIK2 (Homo sapiens, UniProt Q9H0K1)) for COc1cc(-c2cnn3cc(C(C)(C)C#N)ccc23)cc(F)c1C(=O)NC1CC1 [Cpd 252]
Solution: < 6.30

Problem: # returns recorded pIC50 (system: SIK2 (Homo sapiens, UniProt Q9H0K1)) for COc1cc(-c2cnc3cc(C(C)(C)C#N)ccn23)cc(OC(F)F)c1C(=O)N1CCC(OC)CC1 [Cpd 46]
Solution: < 6.30

Problem: # returns recorded pIC50 (system: SIK2 (Homo sapiens, UniProt Q9H0K1)) for COc1cc(-c2cnc3cc(C(C)O)ccn23)cc(OC(F)F)c1C(=O)NC1CC1 (centres unmarked) [Cpd 140]
Solution: 6.30 to 7.00

----------
Overview of recorded IC50 for various molecules
biological target: SIK2 (Homo sapiens, UniProt Q9H0K1); construct: purchased ThermoFisher Scientific PV4792; assay: ADP-Glo kinase assay, SIK2; type: biochemical

1) COc1cc(-c2cnc3cc(C4(C#N)CCCC4)ccn23)cc(OC(F)F)c1C(=O)NC1CC1 = > 500 nM
2) COc1cc(-c2cnc3cc(C(C)(C#N)CO)ccn23)cc(OC(F)F)c1C(=O)NC1CC1 (centres unmarked) = > 500 nM
3) COc1cc(-c2cnc3cc(C(C)(O)C4CC4)ccn23)cc(OC(F)F)c1C(=O)NC1CC1 (centres unmarked) = > 500 nM

Here's the next entry for you.
Problem: Consider the molecule COc1cc(-c2cnc3cc(C4CCCN(C(=O)OC(C)(C)C)C4)ccn23)cc(OC(F)F)c1C(=O)NC1CC1 (centres unmarked) and give its measured IC50.
Solution: 100 to 500 nM
